Numbers sourced from patent US12577250B2.

experiment: Pharmacokinetic evaluation in mice; assay type: in vivo, male ICR mice; details: male, ICR, mouse, plasma, po, 10 mg/kg (0.5% CMC-Na suspension)
MEASURED ENDPOINT: Tmax (min)
Your answer is read as min, so omit the unit and give the number.

Field Tmax (entry "C[C@H](Oc1cc(-n2nc3n(c2=O)CCC2(CC2)C3)c(F)cc1C(=O)Nc1c(F)cccc1Cl)C(F)(F)F" ) reads 15

* * *

Reported IC50 values for the following compounds.
tested on: THP-1 cells; assay: Anti-proliferative activity on THP-1 cells (CellTiter-Lumi, 72 h); assay type: cell-based; details: Homo sapiens, read-out: Cell anti-proliferative activity IC50 THP-1
The figure you give is taken to be in nM; do not add the unit.

C[C@H](Oc1cc(-n2nc3n(c2=O)CCC2(CC2)C3)c(F)cc1C(=O)Nc1c(F)cccc1Cl)C(F)(F)F
27.6
C[C@H](Oc1cc(-n2nc3n(c2=O)CCCC2(CC2)C3)c(F)cc1C(=O)Nc1c(F)cccc1Cl)C(F)(F)F
47.6

Entry "C[C@H](Oc1nc(-n2nc3n(c2=O)CCC2(CC2)C3)c(F)cc1C(=O)Nc1c(F)cccc1Cl)C(F)(F)F" — recorded IC50 = 24.5

* * *

assay: Pharmacokinetic evaluation in mice; assay type: in vivo, male ICR mice; conditions: male, ICR, mouse, plasma, iv, 2 mg/kg
MEASURED ENDPOINT: AUC(0-t) (ng·h/mL)
Numeric answer only, unit ng·h/mL assumed.

Record "C[C@H](Oc1cc(-n2nc3n(c2=O)CCC2(CC2)C3)c(F)cc1C(=O)Nc1c(F)cccc1Cl)C(F)(F)F" , field AUC(0-t): 2530

* * *

assay: Pharmacokinetic evaluation in mice; format: in vivo, male ICR mice; conditions: male, ICR, mouse, plasma, iv, 2 mg/kg
MEASURED ENDPOINT: clearance (L/h/kg)
Write down the numeric answer in L/h/kg and omit the unit.

Field clearance (entry "C[C@H](Oc1cc(-n2nc3n(c2=O)CCC2(CC2)C3)c(F)cc1C(=O)Nc1c(F)cccc1Cl)C(F)(F)F" ) reads 0.792

* * *

Assay: Pharmacokinetic evaluation in mice
Assay type: in vivo, male ICR mice
Conditions: male, ICR, mouse, plasma, po, 10 mg/kg (0.5% CMC-Na suspension)
Experimental: The compounds were administered by intravenous injection at a dose of 2 mg/kg and oral gavage at a dose of 10 mg/kg (0.5% CMC-Na suspension). 15 male ICR mice were selected, and each mouse was subjected to blood collection at 3 discrete time points, with 3 mice per time point. […] The compound concentration in the plasma was determined by liquid chromatography-tandem mass spectrometry, and the corresponding pharmacokinetic parameters were obtained according to a plasma concentration-time curve.
MEASURED ENDPOINT: AUC(0-t) (ng·h/mL)
Field: numeric (ng·h/mL). Do not append units.

// AUC(0-t) lookup, compound = C[C@H](Oc1cc(-n2nc3n(c2=O)CCC2(CC2)C3)c(F)cc1C(=O)Nc1c(F)cccc1Cl)C(F)(F)F [Compound 1] , result: 7780

* * *

Test: Pharmacokinetic evaluation in mice
Format: in vivo, male ICR mice
Settings: male, ICR, mouse, plasma, po, 10 mg/kg (0.5% CMC-Na suspension)
Procedure: The compounds were administered by intravenous injection at a dose of 2 mg/kg and oral gavage at a dose of 10 mg/kg (0.5% CMC-Na suspension). 15 male ICR mice were selected, and each mouse was subjected to blood collection at 3 discrete time points, with 3 mice per time point. […] The compound concentration in the plasma was determined by liquid chromatography-tandem mass spectrometry, and the corresponding pharmacokinetic parameters were obtained according to a plasma concentration-time curve.
MEASURED ENDPOINT: Cmax (ng/mL)
# output: bare number, implied unit ng/mL

# compound C[C@H](Oc1cc(-n2nc3n(c2=O)CCC2(CC2)C3)c(F)cc1C(=O)Nc1c(F)cccc1Cl)C(F)(F)F [Compound 1] ; its Cmax = 2240
